Target: CDK4/cyclinD3 (Homo sapiens, UniProt P11802)
Sequence (P11802 whole entry): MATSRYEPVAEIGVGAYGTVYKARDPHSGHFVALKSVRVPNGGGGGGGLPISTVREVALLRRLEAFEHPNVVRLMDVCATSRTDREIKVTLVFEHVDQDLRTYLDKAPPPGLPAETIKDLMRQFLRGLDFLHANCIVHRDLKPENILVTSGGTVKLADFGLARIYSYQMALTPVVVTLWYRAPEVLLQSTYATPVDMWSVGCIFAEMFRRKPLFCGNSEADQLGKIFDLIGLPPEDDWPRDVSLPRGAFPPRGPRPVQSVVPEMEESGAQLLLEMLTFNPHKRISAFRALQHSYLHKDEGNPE
Sequence (P30281 whole entry partner): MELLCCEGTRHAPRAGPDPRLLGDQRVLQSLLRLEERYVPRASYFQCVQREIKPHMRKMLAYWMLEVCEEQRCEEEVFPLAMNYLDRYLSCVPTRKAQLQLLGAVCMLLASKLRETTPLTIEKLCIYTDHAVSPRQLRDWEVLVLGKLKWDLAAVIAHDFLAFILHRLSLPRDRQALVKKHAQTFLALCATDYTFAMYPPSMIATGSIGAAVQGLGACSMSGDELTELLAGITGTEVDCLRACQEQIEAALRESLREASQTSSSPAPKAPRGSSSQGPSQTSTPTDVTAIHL
Assay: Cyclin-dependent kinase activity assay (continuous ATP coupling assay), CDK4/cyclinD3
Conditions: CDK4/cyclinD3 60 nM, ATP 500 μM, Rb copeptide 500 μM, 15 min preincubation, pH 7.5, 1% DMSO
pIC50: −log10 of the molar value.
pIC50 reference
endpoint.name: pIC50

compound: CS(=O)(=O)Nc1ccc(Nc2ncc(C(F)(F)F)c(-n3cccn3)n2)cc1
test.result: ≤ 7.00
//
compound: CNS(=O)(=O)c1ccc(Nc2ncc(C(F)F)c(-n3cc(CC(C)(C)O)cn3)n2)cc1
test.result: 7.00 to 8.00
//
compound: O=S(=O)(NC1CC1)c1ccc(Nc2ncc(C(F)(F)F)c(-n3cccn3)n2)cc1
test.result: ≤ 7.00
//
compound: CNS(=O)(=O)c1ccc(Nc2ncc(C(F)(F)F)c(-n3cc([C@H]4CCCN4)cn3)n2)cc1
test.result: 7.00 to 8.00
//
compound: O=S(=O)(NCCO)c1ccc(Nc2nccc(-n3cccn3)n2)cc1
test.result: ≤ 7.00
//
compound: O=S(=O)(NCC1(O)CC1)c1ccc(Nc2ncc(C(F)(F)F)c(-n3cccn3)n2)cc1
test.result: ≤ 7.00
//
compound: O=S(=O)(NCCO)c1ccc(Nc2ncc(C(F)F)c(-n3cccn3)n2)cc1
test.result: ≤ 7.00
//
compound: O=S(=O)(NCCO)c1ccc(Nc2ncc(F)c(-n3cccn3)n2)cc1
test.result: ≤ 7.00
//
compound: CNS(=O)(=O)c1ccc(Nc2ncc(C(F)(F)F)c(-n3cc(C[C@H](C)O)cn3)n2)cc1 (single isomer, unassigned)
test.result: 7.00 to 8.00
//
compound: O=S(=O)(NCCO)c1ccc(Nc2ncc(C(F)(F)F)c(-n3cccn3)n2)c(F)c1
test.result: ≤ 7.00
//
compound: CNS(=O)(=O)c1ccc(Nc2ncc(C(F)(F)F)c(-n3cc(-c4ccoc4)cn3)n2)cc1
test.result: ≤ 7.00
//
compound: CNS(=O)(=O)c1ccc(Nc2ncc(C(F)(F)F)c(-n3cc(C4CN(C)C4)cn3)n2)cc1
test.result: 7.00 to 8.00
//
compound: CNS(=O)(=O)c1ccc(Nc2ncc(C(F)(F)F)c(-n3cc(CCC(C)(C)O)cn3)n2)cc1
test.result: 7.00 to 8.00
//
compound: CNS(=O)(=O)c1ccc(Nc2ncc(Br)c(-n3cc(CC(C)(C)O)cn3)n2)cc1
test.result: 7.00 to 8.00
//
compound: Cc1cnc(Nc2ccc(S(=O)(=O)NCCO)cc2)nc1-n1cccn1
test.result: ≤ 7.00
//
compound: CNS(=O)(=O)c1ccc(Nc2ncc(C(F)(F)F)c(-n3cc([C@H]4CC[C@H](O)C4)cn3)n2)cc1 (single isomer, unassigned)
test.result: 7.00 to 8.00
